Target: V₂ receptor (Rattus norvegicus, UniProt Q00788)
Construct: Using rat kidney plasma membrane preparations
Sequence (Q00788 whole entry): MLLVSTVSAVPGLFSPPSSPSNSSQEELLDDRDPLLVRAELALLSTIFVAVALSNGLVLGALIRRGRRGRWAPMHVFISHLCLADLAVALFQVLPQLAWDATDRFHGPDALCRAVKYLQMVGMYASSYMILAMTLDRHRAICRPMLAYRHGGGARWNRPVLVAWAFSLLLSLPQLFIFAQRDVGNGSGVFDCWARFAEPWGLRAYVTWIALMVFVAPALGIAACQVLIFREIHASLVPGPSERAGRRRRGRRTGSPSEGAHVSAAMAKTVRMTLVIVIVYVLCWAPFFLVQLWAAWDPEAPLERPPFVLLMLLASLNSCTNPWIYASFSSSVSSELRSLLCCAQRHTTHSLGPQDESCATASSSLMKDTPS
Assay: V₂ receptor binding assay ([³H]-Arg-vasopressin, rat kidney plasma membrane preparations)
Conditions: 4°C for 3 hours
pIC50: −log10 of the molar value.
Please use Fulfilled whenever pIC50 is not below 7, and Not fulfilled whenever it is.

# MOLECULE, CLASS_LABEL
records = [
    ("Cc1ccccc1C(=O)Nc1ccc(C(=O)N2CCCC(N(C)C)c3cc(Cl)ccc32)cc1 (stereo not drawn)", "Fulfilled"),
    ("CN(C)C1CCCN(C(=O)c2ccc(NC(=O)c3ccc(F)cc3F)cc2)c2ccccc21 (stereo not drawn)", "Fulfilled"),
    ("Cc1cccc(C(=O)Nc2ccc(C(=O)N3CCCCCc4ccccc43)cc2)c1C", "Fulfilled"),
    ("O=C(Nc1ccc(C(=O)N2CCCc3ccccc32)cc1)c1ccccc1C(F)(F)F", "Not fulfilled"),
    ("Cc1ccc(NCC(=O)Nc2ccc(C(=O)N3CCCCc4ccccc43)cc2)cc1", "Fulfilled"),
]

Threshold query (pIC50 >= 7) on O=C(CC1CCCCC1)Nc1ccc(C(=O)N2CCCc3ccccc32)cc1 Not fulfilled

Threshold query (pIC50 >= 7) on C=CCNC1CCCN(C(=O)c2ccc(NC(=O)c3ccccc3C)cc2Cl)c2ccccc21 (stereo not drawn) Fulfilled

Threshold query (pIC50 >= 7) on CNC1CCCN(C(=O)c2ccc(NC(=O)c3ccccc3C)cc2)c2ccc(Cl)cc21 (stereo not drawn) Fulfilled
